Values were extracted from the nanobody polyreactivity screen of Harvey et al. (2022).

# ASSAY_METHOD_TEXT: yeast display, Sf9 membrane polyspecificity reagent, FACS + sequencing; frameworks hold sequencing errors
QUANTITY: polyreactivity (PSR sort gate)

{"SEQUENCE_INPUT": "QVQLVESGGGLVQAGGSLRLSCAASGSIFVPYAMGWYIQAPGKERELVAAISSRGGSTYYADSVKGRFTISRDNAKNTVYLQMNSLKPEDTAVYYCNTDISRNYYWALYGYWGQGTQVTVSS", "QUANTITY": "polyreactivity (PSR sort gate)", "REPORTED_VALUE": "low polyreactivity"}
{"SEQUENCE_INPUT": "QVQLVESGVGLVQAGGSLRLSCASSGSIFTPYAMGCYRQAPGKESELVAAISRSGGSTYYADSVKGRFTISRDNAKNTVFLQMNRLKPEDTAVYYCAVVVYDIYGYESDYWGEGTQVTVSS", "QUANTITY": "polyreactivity (PSR sort gate)", "REPORTED_VALUE": "low polyreactivity"}

----------
# ASSAY_METHOD_TEXT: yeast display, Sf9 membrane polyspecificity reagent, FACS + sequencing; frameworks hold sequencing errors
QUANTITY: polyreactivity (PSR sort gate)

{"SEQUENCE_INPUT": "QVQLVESGGGLVQAGGSLRLSCAASGRILYYSVMGWYRPAPGKERELVAAISSGGDTNYADSVKGRFTISRDNAKNSVYLQMNSLKPEDTAVYYCARGVDGILWTSEYDYWGQGTQVTVSS", "REPORTED_VALUE": "low polyreactivity"}
{"SEQUENCE_INPUT": "QVQLVESGGGLVQAGGSLRLSSAASGRTFGYNAMGWYRPATGKERELVAAISWSGARTYYADSVKGRFTISRDIAKNTVYLQLNSLTPEDTAVYYCAAGIDGYYWPFFRNYDYWGQGTQVTVSS", "REPORTED_VALUE": "high polyreactivity"}
{"SEQUENCE_INPUT": "QVQLVESGGGLVQAGGTLRLSCAASGGIFVANAMGWYRQAPGKERELVAAISRSGGSTYYADSVKGRFTISRDNAKNTVYLQMNSLKPEDTAVYYCAAKSRRQYTVGLTSDYWGQGTQVTVSS", "REPORTED_VALUE": "high polyreactivity"}
{"SEQUENCE_INPUT": "QVQLVESGGGLVQAGGSLRLSCAASGYTQPANGMGLYRQAPGKERELVAAISFIAGSTYYADSVKGRFTISRDNAKNTVYLQMNSLKPEDTAVYYCATQFPPSTIYDYWGQGTQVSVSS", "REPORTED_VALUE": "low polyreactivity"}
{"SEQUENCE_INPUT": "QVQLVESGGGLVQAGGSLRLSCAASGIIFWYYAMGWYRQAPGKERELVASIDWSGGSTYYADSVKGRFTISRDNAKNTVYLQMKSLKPEDTAVYDCNAGSDIYWSAATYGYWGQGTQVTVSS", "REPORTED_VALUE": "high polyreactivity"}

----------
# ASSAY_METHOD_TEXT: yeast display, Sf9 membrane polyspecificity reagent, FACS + sequencing; frameworks hold sequencing errors

{"SEQUENCE_INPUT": "QVQLVESGGGLVQAGGSLRLSCAASGRTIYSYAMVLNTQAPGKERELVAAISRRGGSTYYADSVKGRFTISRDNAKNTVYLQLNSLIPEDTAVYYCAKRYTPLPYKGIWYYYWGQGTQVTVSS", "polyreactivity (PSR sort gate)": "high polyreactivity"}
{"SEQUENCE_INPUT": "QVQLVESGGGLVQAGGSLRLSCAASGRIFKYYAMGWYRQAPGKERELVAAISRGGSTYYADSVKGRFTISRDNAKNTVYLQMNSLKPEDTAVYYCNRLSNNREYDYWGQGTQVTVSS", "polyreactivity (PSR sort gate)": "high polyreactivity"}

----------
# ASSAY_METHOD_TEXT: yeast display, Sf9 membrane polyspecificity reagent, FACS + sequencing; frameworks hold sequencing errors
QUANTITY: polyreactivity (PSR sort gate)

{"SEQUENCE_INPUT": "QVQLVESGGGLVQAGGSLRLSCAASGRTFGYNAMGWYRQAPGKESEFVAAISWSGGRTYYADSVKGRFTISRDNAKNTVYLQMNSLKPEDTAVYYCAAGFGDGPGNGYYTRYSWDDDYWGQGTQVTVSS", "REPORTED_VALUE": "low polyreactivity"}
{"SEQUENCE_INPUT": "QVQLVESGGGLVQAGGSLRLSCAASGFTCVPYAMGWYSQAPGKARELVAAITGGGSTYYADSVKGRFTISRDNAKNTVYFQMHSLKPEDTAVYYCAAREARSHRYSNRVYYWGQGTQVTVSS", "REPORTED_VALUE": "high polyreactivity"}
{"SEQUENCE_INPUT": "QVQLVESGGGLVQAGGSLRLSCAASGSIFARYTMGWYRQAPGKERELVARITSSGGSTYYADSVKGRFTISRDNAKNTVYLQMNSLKPEDTAVYYCAARYRRYVRFQGDYWGQGTQVTVSS", "REPORTED_VALUE": "high polyreactivity"}
{"SEQUENCE_INPUT": "QVQLVESVGGLVQAGGSLRLSCAASGRRTIRYNAMGWYRQAPGKEREFVASISRSGGSTYYADSVKGRFTISRDNAKNTVYLQMNSLKPEDTAVYYCAAAASHLVAYGWGYEYYYWGQGTQVTVSS", "REPORTED_VALUE": "high polyreactivity"}
{"SEQUENCE_INPUT": "QVQLVESGGGLVQAGGSLRLSCAASGSIFMGNAMGWYRQAPGKERELVATITSSGSTSYADSVKGRFTISRDNAKNTVYVQMNSLKPEDTAVYYCNTDLFQYGRTSTIYYEYDYWGQGTQVTVSS", "REPORTED_VALUE": "high polyreactivity"}
{"SEQUENCE_INPUT": "QVQLVESGGGLVQAGGSLRLSCAASGITFYKYAMGWYRQAPGKERELVASISNGGNTNYADSVKGRFTISSDNAKNTVYLQMNSLKPEDTAVYYCAAGRQWYSYYRNDYWGQGTQVTVSS", "REPORTED_VALUE": "high polyreactivity"}
{"SEQUENCE_INPUT": "QVHLVESGGGLVQAGGSIRLSCAASGSTFLVYAMGWYRPAPGKGRELVAAISRSGSSTYYADSVKGRFTISRDNAMNTVYLQMIRLKPEDTAVYYCNAYSQYWLGNNYWGQGTQVTVSS", "REPORTED_VALUE": "high polyreactivity"}
{"SEQUENCE_INPUT": "QVQLVESGVGLVQAGGSLRLSCAASGIIFKVYAMGWYRQAPGKERELVAAISKSGGSTYYADSVKGRFTISRDNAKNTVYLQMNSLKPEDTAVYYCAARDYARYASYYYWGLGTQVTVSS", "REPORTED_VALUE": "high polyreactivity"}
{"SEQUENCE_INPUT": "QVQLVESGGGLVQAGGSLRLICAASGRIFVRNAMGWSRQAPGKERELVAAITSGGRTYYADSVKGRFTISRDNAQNTVYVQMNSLKPEDTAVYYCAARAGNASAIDVAYWGQGSQVTVSS", "REPORTED_VALUE": "low polyreactivity"}
{"SEQUENCE_INPUT": "QVQLVESGGGLVQAGGSLRLRCAASGRTFKPYVMGWNRQAPGKERELVAAISSRGGSTYYADSVKGRFTISRDNAKNTFYLQMNSLKPEDTAVYYCNAAYWFSNKYGYWGQGTQVTVAS", "REPORTED_VALUE": "high polyreactivity"}
{"SEQUENCE_INPUT": "QVQLVESAGGLVQAGGSLRVRCAASGGIFSGNDMGWYRQAPGKERELVATITSDGSTNYADSVKGRFTISRDNAKNTVYLQMNSLKPEDTAVYYCAADGLYWWMYYWGQGTQVTVSS", "REPORTED_VALUE": "low polyreactivity"}

----------
# ASSAY_METHOD_TEXT: yeast display, Sf9 membrane polyspecificity reagent, FACS + sequencing; frameworks hold sequencing errors

{"SEQUENCE_INPUT": "QVQLVESGGGLVQAGGSLRLSCAASGSIFRQNVMGWYRQAPGKERELVAAISRNGGSTYYADSVKGRFTISRDNAKNTVYFQMNSLKPEDTGVYYCAARGFRRYDYWGQGTQVTVSS", "polyreactivity (PSR sort gate)": "high polyreactivity"}
{"SEQUENCE_INPUT": "QVHLVESGGGLVQAGGSLRLSCAASGRIFYTNAMGWYRQAPGKERELVAVISWGGDTTYYADSVKGRFTISRDNAKNTVSLQMNSLKPEDTEVYYCAARSKYTHSRQSDYWGQGTQVTVSS", "polyreactivity (PSR sort gate)": "low polyreactivity"}
{"SEQUENCE_INPUT": "QVQLVESGGGLVQAGGSLRLSCAASGFIFLGYAMGWYRQAPGKERELVAAISSDSDTNYADSVKGRFTISRDNAKNTVYLQMNSLKPEDTAVYYCNADIDSYREMDYWGQGTQVTVSS", "polyreactivity (PSR sort gate)": "low polyreactivity"}
{"SEQUENCE_INPUT": "QVQLVESGGGLVQAGGSLRLSCAASGRTFYPYAMGWYRQAPGKERELVAAITQSGGSTYYADSVKGRFTISRDNAKNTVFLEMNSLKPEDTAVYYCAKRGYDNYPFYYWGQGTQVTVSS", "polyreactivity (PSR sort gate)": "high polyreactivity"}
{"SEQUENCE_INPUT": "QVQLVESGGGLVQAGGSLRLSCSASGSIFPHYAMGWYRQAPGKERELVAAISRSGTSTYYADSVKGRFTISRDNAKNTVYLQMNSLKPEDTAVYYCNAYQVYTRTYGYCGQGTQVTVSS", "polyreactivity (PSR sort gate)": "high polyreactivity"}
{"SEQUENCE_INPUT": "QVQLVESGGGLVQAGGSLRLSCAASGSIFTLYAMGWYRQAPGKETELVAVISSSGGRTYYADSVKGRFTISRDNAKNTVYLQMNSLKPEDTAVYYGAARGYGATYDYWGQGTQVTVSS", "polyreactivity (PSR sort gate)": "high polyreactivity"}
{"SEQUENCE_INPUT": "QVQLVESGGGLVQAGDSLRLSCAASGSIFAWKTKGWYRQAPGTERELVAAISSGDSTYYADSVKGRFTISRDNAKNPVYLQMNSLKPEDTAVYYCAATYYQDRRRGYWGQGTQVTVSS", "polyreactivity (PSR sort gate)": "high polyreactivity"}
{"SEQUENCE_INPUT": "QVQLVESGGGLVQAGGRLRLSCAASGRIFGFNAMGWYRQAPGKERELVAAIDGNDASTFYADSGKGRFTISRDNAKNTDYFQMNSLKPEDTAVYYCAAESSYVYLGWREYWGQGTQVTVSS", "polyreactivity (PSR sort gate)": "high polyreactivity"}
{"SEQUENCE_INPUT": "QVQLVESGGGLVQAGGSLRLSCAASGLIFVYYDMGWYRQAPGKERELVAAISSSGSTYYADSVKGRFTISRDNAKNTVYLQMNSLKPEDTAVYYCAAEYLYWPFGSNYWGQGTQVTVSS", "polyreactivity (PSR sort gate)": "high polyreactivity"}
{"SEQUENCE_INPUT": "QVQLVESGGGLVQAGGSLRLSCPASGSNLSRYAMGWYRQAPGKERELVAGITWRGGSTYYADSVKGRFTISRDNAKNTVYLQMNSLKPEDTAVYYCARRYGGYKWVRAYYYWGQGTQVTLSS", "polyreactivity (PSR sort gate)": "high polyreactivity"}
{"SEQUENCE_INPUT": "QVQLEESGGGLVQAGGSLRLSCAASGYTFRGNARGWYRQAPGKERELVASISYSGGTTYADSVKGRFTISRDNAKNTVYLHRNSLKQEDTAVYYCNAAGFYYLYSHRQYEFWGQGTQLTVSS", "polyreactivity (PSR sort gate)": "low polyreactivity"}
